Experiment: Mouse PK assay
Assay type: in vivo, B6 female mice
Details: po
Label rule, in plain words: Mouse Cmin, po of 0.02 µg/mL and up is 1, under 0.02 µg/mL is -1.

COMPOUND: CNC(=O)n1c(C)cc2cc(Oc3ccnc4cc(C(=O)N5CCC[C@@H]5COC)sc34)ccc21 [Example 4e]
CLASS_LABEL: 1

COMPOUND: C#CCNC(=O)n1c(C)cc2cc(Oc3ccnc4cc(C(=O)N5CC[C@@H](OC)C5)sc34)ccc21 [Example 4l]
CLASS_LABEL: 1

COMPOUND: COC[C@@H]1CCCN1C(=O)c1cc2nccc(Oc3ccc4c(c3)cc(C)n4C(=O)NCC#CCO)c2s1 [Example 4d]
CLASS_LABEL: 1

COMPOUND: CO[C@H]1CCN(C(=O)c2cc3nccc(Nc4ccc5c(c4)cc(C)n5C(=O)NC4CC4)c3s2)C1 [Example 1f]
CLASS_LABEL: -1

COMPOUND: Cc1cc2cc(Nc3ccnc4cc(C(=O)N5CCC[C@H]5CO)sc34)ccc2n1C(=O)NC(C)C [Example 2g]
CLASS_LABEL: -1
